Every entry's value here was drawn from PubChem BioAssay (NCI).

Tested on: CCRF-CEM leukemia
Test: NCI tumour cell line growth inhibition, 48 h
Listed compounds paired with reported TGI

# Compound, TGI
records = [
    ("CC(=O)NNc1nc(C)c(C(=O)/C=C/c2cccc([N+](=O)[O-])c2)s1", "> 100 µM"),
]

Quick note, TGI for `CC(=O)N1CCC(Nc2cc(C(=O)NC[C@H](O)CN3CCc4ccccc4C3)ncn2)CC1` landed at > 100 µM

Quick note, TGI for CCOC(=O)C(NC(=O)CC)(Nc1ccccc1OC)C(F)(F)F (centres undefined) landed at > 100 µM

Quick note, TGI for CCC(=O)OC1CCC2C3CCC(=O)OC3C(C)(CCC(=O)O)CC12C (centres undefined) landed at > 100 µM

Quick note, TGI for CCCCOC(=O)C(=O)C(CC(CC)C(=O)c1ccccc1)C(=O)C=C(C)C (centres undefined) landed at > 100 µM

Quick note, TGI for CC(O)CCc1ccc(Oc2c3ccccc3nc3occc23)cc1 (centres undefined) landed at 34.8 µM

Quick note, TGI for `COc1ccc(Nc2nc3c(N)cc(C(F)(F)F)cc3nc2-c2ccccc2)cc1OC` landed at > 100 µM

Quick note, TGI for C=C1C(NC)CCC23CC24CCC2(C)C(C(C)=O)C(O)CC2(C)C4CCC13 (centres undefined) landed at > 100 µM

Quick note, TGI for CC(=O)c1c2c(cc3c1CC1(C3)Cc3cc4c(c(C(=O)O)c3C1)CCCC4)CCCC2 (centres undefined) (tested in a mixture with another compound) landed at 94.6 µM

---

Listed compounds paired with reported TGI
System: EKVX NSCLC
Experiment: NCI tumour cell line growth inhibition, 48 h
Numeric answer only, unit µM assumed.

# Chemical Smiles, TGI (µM)
measured = [
    ("CC(C)(C)c1cc(OCc2nnc3sc(-c4ccc(Cl)cc4)nn23)c(Cl)cc1OCc1nnc2sc(-c3ccc(Cl)cc3)nn12", 97.9),
    ("O=C(Nc1ccc2ncccc2c1)c1cc2c(cc1Cl)Sc1nccn1S2(=O)=O", 39.1),
]

Now take the following compound into account.
Quick note, TGI for `COc1ccc(OC)c2[nH]c(Sc3c([N+](=O)[O-])ncn3C)nc12` landed at 51.2

---

Test system: NCI-H522 lung
Experiment: NCI tumour cell line growth inhibition, 48 h
Property Label: TGI

Solved entries (count: 3):
# Compound, Result
measured = [
    ("COc1nc(NC2OCC(OC(C)=O)C(OC(C)=O)C2OC(C)=O)c(-c2csc(N)n2)c(=O)n1C (centres undefined)", "> 100 µM"),
    ("CC(=O)OCC1(C)C(OC(C)=O)CCC2(C)C(CC(OC(C)=O)C3=CCOC3=O)C(O)(CO)CCC12 (centres undefined)", "> 100 µM"),
    ("N#CC1=C(N)Oc2c(ccc3ccccc23)C1c1cccs1 (centres undefined)", "0.0846 µM"),
]

Now take the following compound into account.
Quick note, TGI for `COc1ccc2nc3ccccc3c(NCc3ccc(Cl)cc3)c2c1` landed at 5.08 µM

---

Test system: XF 498 CNS
Assay: NCI tumour cell line growth inhibition, 48 h
Listed compounds paired with reported TGI

Solved entries (count: 3):
# Compound, Result
measured = [
    ("COC(=O)C1=C(C)C(=O)[C@H]2C(C(=O)OC)CCCC[C@@H]12 (stereo partly specified)", "> 100 µM"),
    ("NCCc1ccc2oc3cc(=O)c4ccccc4c-3nc2c1", "7.01 µM"),
    ("CCc1cccc(C)c1NC(=O)CC(=O)NNC(N)=S", "> 100 µM"),
]

Quick note, TGI for O=C1C(Cl)N(c2ccc(Cl)cc2Cl)C1c1c[nH]c2ccccc12 (stereo unspecified) landed at > 100 µM

Quick note, TGI for `CC[C@@]1(O)C(=O)OCc2c1cc1n(c2=O)Cc2c-1nc1ccccc1c2Cl` landed at 2.15 µM

Quick note, TGI for COC(=O)C1CCC2(C)[C@H](CCC3O[C@]32C)[C@@]1(C)CC(=O)c1ccoc1 (stereo partly specified) landed at > 100 µM

Quick note, TGI for O=C1CCC2(c3ccc(F)cc3)Nc3ncccc3N12 (stereo unspecified) landed at > 100 µM

Quick note, TGI for `O=C1c2cccc(O)c2C(=O)c2cccc(O)c21` landed at > 100 µM

Quick note, TGI for CCCC(=O)c1c(NOC2OCC(OC(C)=O)C(OC(C)=O)C2OC(C)=O)nc(OC)n(C)c1=O (stereo unspecified) landed at > 100 µM

Quick note, TGI for Cc1cc(O)c(C=O)c(C)c1CCC1(C)C=Cc2cc(O)ccc2O1 (stereo unspecified) landed at 52.7 µM

Quick note, TGI for O=C(Nc1ccc(Cl)c(Cl)c1)C(=O)C(C(=O)c1ccccc1F)C1OC(=O)c2ccccc21 (stereo unspecified) landed at 79.5 µM

---

Listed compounds paired with reported TGI
Tested on: UACC-62 melanoma
Experiment: NCI tumour cell line growth inhibition, 48 h
Numeric answer only, unit µM assumed.

# Compound, TGI, µM
data = [
    ("O=C(Nc1ccc(Cl)c(Cl)c1)C(=O)C(C(=O)c1ccccc1F)C1OC(=O)c2ccccc21 (stereo not given)", 28.3),
]

UACC-62 melanoma assay, compound COc1cc2c(cc1OCc1ccccc1)N=CC1C[C@@H](O)CN1C2=O (stereo not given in full) , recorded TGI = 17.1

---

Test system: MALME-3M melanoma
Assay: NCI tumour cell line growth inhibition, 48 h
Listed compounds paired with reported TGI

Solved entries (count: 3):
# Compound, TGI
data = [
    ("C/C=C/[C@@H](C(=O)OC)N1C(=O)c2ccccc2[C@H]1O", "> 100 µM"),
    ("CC1=C(c2cc(C(=O)Nc3cc(C)ccc3C)nc(N)n2)Sc2ccccc2N1", "> 100 µM"),
    ("CN1CCN(C(=S)N(C(=O)c2ccco2)C2CCCCC2)CC1", "> 100 µM"),
]

Quick note, TGI for `O=[N+]([O-])c1ccc(-c2noc(-c3ccccc3)c2C2=NCCN2)cc1` landed at > 100 µM

Quick note, TGI for Nc1nc(N)c2c(Cl)c(CNc3ccc(C(=O)NC(CC(=O)O)C(=O)O)cc3)ccc2n1 (stereo not given) landed at > 100 µM

Quick note, TGI for `C[n+]1c2ccccc2c(Nc2ccc(N3CCCCC3)cc2)c2[nH]c3ccccc3c21` landed at 1.53 µM

Quick note, TGI for `Nc1ccc(S(=O)(=O)Nc2cnc3ccccc3n2)cc1` landed at > 100 µM

Quick note, TGI for `O=C1N[C@@H]2[C@@H](O)[C@@H](O)[C@H](O)C[C@H]2c2cc3c(c(O)c21)OCO3` landed at 0.537 µM

Quick note, TGI for `CCOP(=O)(OCC)/C(C#N)=C\c1ccc(OC(C)=O)cc1` landed at > 100 µM

Quick note, TGI for `ClC1=C(Cl)C(Cl)(Cl)SS1` landed at > 6.61 µM

Quick note, TGI for `Cc1ccc(NC2=N[C@]34CC(=O)CC[C@]3(C)[C@H]3CC[C@]5(C)C(=O)CC[C@H]5[C@@H]3C[C@@H]4S2)c(C)c1` landed at 5.55 µM

Quick note, TGI for `O=[N+]([O-])c1ccc2c(c1)C(=NO)c1cc([N+](=O)[O-])ccc1-2` landed at > 100 µM

Quick note, TGI for `CN(C)CCCn1c2c(c3ccc(-c4ccn[nH]4)cc3c1=O)C(=O)c1ccccc1-2` landed at 2.47 µM

Quick note, TGI for `c1ccc2c3ccn4ccc5c6ccccc6[nH]c5c4c-3nc2c1` landed at 3.06 µM

Quick note, TGI for `CCCc1[nH]nc(C(N)=O)c1N=NN(C)C` landed at > 100 µM

Quick note, TGI for COC(=O)C1=C(C)C(=O)[C@H]2C(C(=O)OC)CCCC[C@@H]12 (stereo not given in full) landed at > 100 µM

Quick note, TGI for N#CC1=C(N)Oc2c(ccc3ccccc23)C1c1cccs1 (stereo not given) landed at 24.3 µM

Quick note, TGI for `[N-]=[N+]=Nc1c(N2CCOCC2)c(Cl)nc2ccccc12` landed at > 100 µM

Quick note, TGI for `CN(C)CCNc1ccc(NCC[N+](C)(C)Cc2ccc([N+](=O)[O-])cc2)c2c1C(=O)c1ccccc1C2=O` landed at > 25 µM

Quick note, TGI for `O=Cc1cn(Cc2ccc(Cl)cc2)c2ccccc12` landed at 43.3 µM

---

Tested on: HL-60(TB) leukemia
Assay: NCI tumour cell line growth inhibition, 48 h
Mark false for TGI values under 40 µM, and true for everything at or above.

Worked examples follow.
# Compound, Discrete Label
data = [
    ("C[Si](C)(c1ccccc1)C1CC(=O)CC(=O)C1", "true"),
    ("C[n+]1c2ccccc2c(Nc2ccc(N3CCCCC3)cc2)c2[nH]c3ccccc3c21", "false"),
    ("O=C1CC2(CCC(O)(c3ccccc3)C(C(=O)c3ccccc3)C2)C(=O)c2ccccc2N1 (stereo not given)", "true"),
    ("C=C1C(=O)O[C@H]2[C@H]1CC/C(COC(=O)CCCC(=O)OC/C1=C/CC[C@@]3(C)O[C@H]3[C@H]3OC(=O)C(=C)[C@@H]3CC1)=C\\CC[C@@]1(C)O[C@@H]21", "false"),
    ("CCc1cccc(C)c1NC(=O)CC(=O)NNC(N)=S", "true"),
]

Lookup: Check this compound for TGI at or above 40 µM: `Nc1ccc(I)cn1`
Found: true

Lookup: Check this compound for TGI at or above 40 µM: `O=C1C(=Cc2cccs2)C(=O)N(CCc2ccccc2)S(=O)(=O)N1CCc1ccccc1`
Found: false

Lookup: Check this compound for TGI at or above 40 µM: `CC(C)OC(=O)c1cc(NS(=O)(=O)c2ccc3ccccc3c2)cc(C(=O)OC(C)C)c1`
Found: true
